tested on: Bacillus subtilis; experiment: Antibacterial activity against Bacillus subtilis at 0.12 mg after 24 hrs by paper disk assay; format: functional
Calls of active or inactive are those of the source. The calls are words filed in the database; no cut-off is given here.
Outcomes: YES for active, NO for inactive

- CCCCCCCC/C=C\C[C@@H](O)[C@H](C)N: YES
- C=CCCCCCCCCC[C@@H](O)[C@H](C)NC(C)=O: NO
- C=CCCCCCCCCC[C@@H](O)[C@H](C)N: YES
- C=CCCCCCCC[C@@H](O)[C@H](C)N: YES
